# ASSAY_SETUP: mass fraction passing 425 μm sieve; 10 g sample, 3 min sieving
VALUE_KIND: Particle size distribution (Alpine AJS) <425 μm (%)

Query block: For the molecule O=C1CN(/N=C/c2ccc([N+](=O)[O-])o2)C(=O)N1 [Example 4, nitrofurantoin anhydrate] , what Particle size distribution (Alpine AJS) <425 μm is on record?
Result block: 98

Query block: For the molecule O=C1CN(/N=C/c2ccc([N+](=O)[O-])o2)C(=O)N1 [Example 5c, nitrofurantoin anhydrate] , what Particle size distribution (Alpine AJS) <425 μm is on record?
Result block: 99

Query block: For the molecule O=C1CN(/N=C/c2ccc([N+](=O)[O-])o2)C(=O)N1 [Example 7, nitrofurantoin anhydrate] , what Particle size distribution (Alpine AJS) <425 μm is on record?
Result block: 99

Query block: For the molecule O=C1CN(/N=C/c2ccc([N+](=O)[O-])o2)C(=O)N1 [Example 5b, nitrofurantoin anhydrate] , what Particle size distribution (Alpine AJS) <425 μm is on record?
Result block: 98

Query block: For the molecule O=C1CN(/N=C/c2ccc([N+](=O)[O-])o2)C(=O)N1 [Example 3, nitrofurantoin anhydrate] , what Particle size distribution (Alpine AJS) <425 μm is on record?
Result block: 98

Query block: For the molecule O=C1CN(/N=C/c2ccc([N+](=O)[O-])o2)C(=O)N1 [Example 6, nitrofurantoin anhydrate] , what Particle size distribution (Alpine AJS) <425 μm is on record?
Result block: 98

Query block: For the molecule O=C1CN(/N=C/c2ccc([N+](=O)[O-])o2)C(=O)N1 [Example 2a, nitrofurantoin anhydrate] , what Particle size distribution (Alpine AJS) <425 μm is on record?
Result block: 95

Query block: For the molecule O=C1CN(/N=C/c2ccc([N+](=O)[O-])o2)C(=O)N1 [Example 5a, nitrofurantoin anhydrate] , what Particle size distribution (Alpine AJS) <425 μm is on record?
Result block: 97

====

# ASSAY_SETUP: mass fraction retained on 180 μm sieve; 10 g sample, 3 min sieving
VALUE_KIND: Particle size distribution (Alpine AJS) >180 μm (%)

// solved cases for Particle size distribution (Alpine AJS) >180 μm follow
Query block: For the molecule O=C1CN(/N=C/c2ccc([N+](=O)[O-])o2)C(=O)N1 [Example 2b, nitrofurantoin anhydrate] , what Particle size distribution (Alpine AJS) >180 μm is on record?
Result block: 67

Query block: For the molecule O=C1CN(/N=C/c2ccc([N+](=O)[O-])o2)C(=O)N1 [Example 2a, nitrofurantoin anhydrate] , what Particle size distribution (Alpine AJS) >180 μm is on record?
Result block: 72

Query block: For the molecule O=C1CN(/N=C/c2ccc([N+](=O)[O-])o2)C(=O)N1 [Example 2c, nitrofurantoin anhydrate] , what Particle size distribution (Alpine AJS) >180 μm is on record?
Result block: 70

(A) O=C1CN(/N=C/c2ccc([N+](=O)[O-])o2)C(=O)N1 [Example 5c, nitrofurantoin anhydrate]
(B) O=C1CN(/N=C/c2ccc([N+](=O)[O-])o2)C(=O)N1 [Example 1, nitrofurantoin anhydrate]
Query block: Among A and B , whose measured Particle size distribution (Alpine AJS) >180 μm is the smaller figure? Reply with the label of the item you choose.
Result block: A
(A: 51%, B: 76%)
